Test system: Trypanosoma cruzi
protocolSummary: Trypanosoma cruzi phosphomannomutase and mannose-1-phosphate guanylyltransferase assay
Assay type: functional
Design: scale not given: direction of the effect not stated beside the values
details: 10 µM

| molecule | subjectOfTest | Percent Effect (%) |
| --- | --- | --- |
| CN(Cc1nnc(C2CC2)n1C)C1CCN(Cc2ccc(F)cc2)C1 (stereo unspecified) | Trypanosoma cruzi | 0.283 |
| COCC(=O)N1CCN(C(=O)c2scnc2C)CC1 | Trypanosoma cruzi | 2.82 |
| CCCc1nc(C(C)(C)NC(=O)C2CC(=O)N(CC3CC3)C2)no1 (stereo unspecified) | Trypanosoma cruzi | -6.78 |
| C[C@@H]1CN(C(=O)c2ccc(C#N)nc2)CC[C@@]1(O)C1CCOCC1 | Trypanosoma cruzi | 6.18 |
| CC(C)C1CN(C(=O)c2ccc(C(N)=O)cc2)CCS1 (stereo unspecified) | Trypanosoma cruzi | -6.2 |
| Cc1cncc(C(=O)N2CCCCC2c2nc(C)cs2)c1 (stereo unspecified) | Trypanosoma cruzi | 8.99 |
| Cn1c(Cn2cccn2)nnc1C1CCCN(c2ccncc2)C1 (stereo unspecified) | Trypanosoma cruzi | 3.86 |
| Cc1nn(C)c2c(=O)n(CC(=O)Nc3cc(Cl)cc(Cl)c3)nnc12 | Trypanosoma cruzi | -6.29 |
| Cc1nc([C@@H]2C[C@@H]3CCN(C(=O)c4occc4C)C[C@H]3O2)no1 | Trypanosoma cruzi | -1.74 |
| Cc1ccc(CN2Cc3c(C(=O)N(C)C)nn(C)c3C2)s1 | Trypanosoma cruzi | 6.75 |
| CN(CCNC(=O)Nc1ccncc1)C1CCCCC1 | Trypanosoma cruzi | 8.21 |
